Assay: in vivo
Conditions: male, Wistar Hannover, rat, po, 100 mg/kg
OBSERVED PROPERTY: Tmax at 4 h (min)
Entry rule: numbers only, all in min.

State the recorded Tmax at 4 h for this entry: "CC(C)(C)[C@H](NC(=O)C(F)(F)F)C(=O)N1C[C@H]2[C@@H]([C@H]1C(=O)N[C@H](C#N)C[C@@H]1CCNC1=O)C2(C)C" 45

====

Assay: in vivo
Details: male, cynomolgus monkey, iv, 1 mg/kg
OBSERVED PROPERTY: AUC(0-inf) (ng·h/mL)
Numeric only. Scale: ng·h/mL

AUC(0-inf) for "CC(C)[C@H](NC(=O)C(F)(F)F)C(=O)N1C[C@H]2[C@@H]([C@H]1C(=O)N[C@@H](C[C@@H]1CCNC1=O)C(=O)c1nc3ccccc3s1)C2(C)C" ? 977

====

Give measured bioavailability for each item. Keep answers brief.
Experiment: in vivo
Conditions: rat, po

Requested field: bioavailability. Item: "COc1cccc2[nH]c(C(=O)N[C@@H](CC(C)(C)C)C(=O)N[C@@H](C[C@@H]3CCNC3=O)C(=O)c3nc4ccccc4s3)cc12" < 1%

Look up bioavailability for this molecule: "COc1cccc2[nH]c(C(=O)N[C@@H](CC(C)C)C(=O)N[C@@H](C[C@@H]3CCNC3=O)C(=O)CO)cc12" < 0.5%

I'd like to know its bioavailability. The molecule in question is "CC(C)(C)[C@H](NS(C)(=O)=O)C(=O)N1C[C@H]2[C@@H]([C@H]1C(=O)N[C@H](C#N)C[C@@H]1CCNC1=O)C2(C)C" < 1%

====

For each entry below, report its microsomal CLint value.
Assay: in vitro
Details: human, liver microsomes

Fill in: microsomal CLint of "CC(C)(C)[C@H](NS(=O)(=O)C(F)(F)F)C(=O)N1C[C@H]2[C@@H]([C@H]1C(=O)N[C@H](C#N)C[C@@H]1CCNC1=O)C2(C)C" is ___ < 7.47 µL/min/mg

What value of microsomal CLint has been reported for the following molecule? "CNC(=O)N[C@H](C(=O)N1C[C@H]2[C@@H]([C@H]1C(=O)N[C@H](C#N)C[C@@H]1CCNC1=O)C2(C)C)C(C)(C)C" < 7.12 µL/min/mg

Entry "CC(=O)N[C@H](C(=O)N1C[C@H]2[C@@H]([C@H]1C(=O)N[C@H](C#N)C[C@@H]1CCNC1=O)C2(C)C)C(C)(C)C" : reported microsomal CLint = ? < 7 µL/min/mg
